TARGET_OR_SYSTEM: T1, IL-10R1-Fc (UniProt Q13651 22-235, limits assumed)
T1 sequence (looked up): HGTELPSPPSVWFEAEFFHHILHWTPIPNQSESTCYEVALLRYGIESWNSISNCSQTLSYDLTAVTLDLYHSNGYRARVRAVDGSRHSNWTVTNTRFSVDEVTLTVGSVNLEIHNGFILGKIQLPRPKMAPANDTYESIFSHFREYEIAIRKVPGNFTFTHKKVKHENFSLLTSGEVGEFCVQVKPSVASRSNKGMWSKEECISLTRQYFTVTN
METHOD: ELISA, IL-10R1-Fc coated
Binding recovery (>60%) reference
MEASURED_ENDPOINT: Binding recovery (>60%)

binder="IL-10 Ser31Cys-R4-2 (ligand, human, UniProt P22301 19-178, looked up, R4-2 on Cys 31, mature) SPGQGTQSENSCTHFPGNLPNMLRDLRDAFCRVKTFFQMKDQLDNLLLKESLLEDFKGYLGCQALSEMIQFYLEEVMPQAENQDPDIKAHVNSLGENLKTLRLRLRRCHRFLPCENKSKAVEQVKNAFNKLQEKGIYKAMSEFDIFINYIEAYMTMKIRN" measured_endpoint="Binding recovery (>60%)" obs_value=125
binder="IL-10 Asn45Cys-R4-18 (ligand, human, UniProt P22301 19-178, looked up, R4-18 on Cys 45, mature) SPGQGTQSENSCTHFPGNLPNMLRDLRDAFSRVKTFFQMKDQLDCLLLKESLLEDFKGYLGCQALSEMIQFYLEEVMPQAENQDPDIKAHVNSLGENLKTLRLRLRRCHRFLPCENKSKAVEQVKNAFNKLQEKGIYKAMSEFDIFINYIEAYMTMKIRN" measured_endpoint="Binding recovery (>60%)" obs_value=97.7
binder="IL-10 Gly17Cys-R4-1 (ligand, human, UniProt P22301 19-178, looked up, R4-1 on Cys 17, mature) SPGQGTQSENSCTHFPCNLPNMLRDLRDAFSRVKTFFQMKDQLDNLLLKESLLEDFKGYLGCQALSEMIQFYLEEVMPQAENQDPDIKAHVNSLGENLKTLRLRLRRCHRFLPCENKSKAVEQVKNAFNKLQEKGIYKAMSEFDIFINYIEAYMTMKIRN" measured_endpoint="Binding recovery (>60%)" obs_value=90.2
binder="IL-10 His90Cys-R4-19 (ligand, human, UniProt P22301 19-178, looked up, R4-19 on Cys 90, mature) SPGQGTQSENSCTHFPGNLPNMLRDLRDAFSRVKTFFQMKDQLDNLLLKESLLEDFKGYLGCQALSEMIQFYLEEVMPQAENQDPDIKACVNSLGENLKTLRLRLRRCHRFLPCENKSKAVEQVKNAFNKLQEKGIYKAMSEFDIFINYIEAYMTMKIRN" measured_endpoint="Binding recovery (>60%)" obs_value=86.5
binder="IL-10 Leu48Cys-R4-7 (ligand, human, UniProt P22301 19-178, looked up, R4-7 on Cys 48, mature) SPGQGTQSENSCTHFPGNLPNMLRDLRDAFSRVKTFFQMKDQLDNLLCKESLLEDFKGYLGCQALSEMIQFYLEEVMPQAENQDPDIKAHVNSLGENLKTLRLRLRRCHRFLPCENKSKAVEQVKNAFNKLQEKGIYKAMSEFDIFINYIEAYMTMKIRN" measured_endpoint="Binding recovery (>60%)" obs_value=98.9
binder="IL-10 Glu50Cys-R4-12 (ligand, human, UniProt P22301 19-178, looked up, R4-12 on Cys 50, mature) SPGQGTQSENSCTHFPGNLPNMLRDLRDAFSRVKTFFQMKDQLDNLLLKCSLLEDFKGYLGCQALSEMIQFYLEEVMPQAENQDPDIKAHVNSLGENLKTLRLRLRRCHRFLPCENKSKAVEQVKNAFNKLQEKGIYKAMSEFDIFINYIEAYMTMKIRN" measured_endpoint="Binding recovery (>60%)" obs_value=99.8
binder="IL-10 Ile69Cys-R4-6 (ligand, human, UniProt P22301 19-178, looked up, R4-6 on Cys 69, mature) SPGQGTQSENSCTHFPGNLPNMLRDLRDAFSRVKTFFQMKDQLDNLLLKESLLEDFKGYLGCQALSEMCQFYLEEVMPQAENQDPDIKAHVNSLGENLKTLRLRLRRCHRFLPCENKSKAVEQVKNAFNKLQEKGIYKAMSEFDIFINYIEAYMTMKIRN" measured_endpoint="Binding recovery (>60%)" obs_value=97.3
